- System: 786-0 renal
- ASSAY NOTES: NCI tumour cell line growth inhibition, 48 h; in the data active = GI50 below about 0.43 µM; inactive = the rest
Where a SMILES comes first, the peptide text is derived from it. Bridges are numbered along the chain shown (N, C = ends). [ ]: non-standard residue; d: D form. The star is where a group is joined. ξ: configuration not given here. ξDab(CH2SO3H) = NC(CCNCS(=O)(=O)O)C(=O)O; Heptanoyl(6-Me) = CC(C)CCCCC(=O)*; Dab = NCC[CH](N)C(=O)O
Thanks in advance; please answer with one of these: Y (active), N (inactive)

Study these solved cases before continuing.
[[record]]
compound = "COc1ccc2c(c1)oc(=O)c1cc(OC)ccc12"
category = "N"

[[record]]
compound = "CCCCCCn1c(-c2ccc(C(=O)O/N=C(\\N)c3ccc4ccccc4c3)cc2)nc(-c2ccccc2)c1-c1ccccc1"
category = "N"


Request: Hi, do you know how CC[C@@]1(O)C(=O)OCc2c1cc1n(c2=O)Cc2cc3cccc([N+](=O)[O-])c3nc2-1 came out in this test?
Result: Y

Request: Another compound to look at: CCC(C)C1NC(=O)C(CCNCS(=O)(=O)O)NC(=O)C(NC(=O)C(CCNCS(=O)(=O)O)NC(=O)C(NC(=O)C(CCNCS(=O)(=O)O)NC(=O)CCCCC(C)C)C(C)O)CCNC(=O)C(C(C)O)NC(=O)C(CCNCS(=O)(=O)O)NC(=O)C(CCNCS(=O)(=O)O)NC(=O)C(C(C)CC)NC1=O (configuration not stated) ({Heptanoyl(6-Me)}-[ξDab(CH2SO3H)]T[ξDab(CH2SO3H)][Dab][ξDab(CH2SO3H)]II[ξDab(CH2SO3H)][ξDab(CH2SO3H)]T; lactam 4-C; configuration not given here)
Result: N

Request: Another compound to look at: CC(=O)Nc1c(I)c(NC(C)=O)c(I)c(C(=O)O)c1I
Result: N

Request: Another compound to look at: CN(C)CCCCC(C(=O)CBr)(c1ccccc1)c1ccccc1
Result: N

Request: Another compound to look at: C#CCN(Cc1nc2cc(C(F)(F)F)ccc2nc1-c1ccccc1)c1ccc(C)cc1
Result: N

====

- Tested on: SNB-75 CNS
- ASSAY NOTES: NCI tumour cell line growth inhibition, 48 h
MEASURED ATTRIBUTE: TGI

Would you please look over these solved cases?
[[record]]
compound = "CCCn1cc2c(SC)nc(SC)nc2n1"
recorded_value = "> 100 µM"

[[record]]
compound = "c1ccc2cc(NCNc3ccc4ccccc4c3)ccc2c1"
recorded_value = "30.9 µM"

[[record]]
compound = "COc1cc(/C(=C2/O[C@@H]([C@H]3COC(C)(C)O3)[C@H]3OC(C)(C)O[C@@H]23)c2ccc3ccccc3c2)cc(OC)c1OC"
recorded_value = "7.44 µM"

[[record]]
compound = "CCSc1cc2c(cc1O)CC[C@@H]1[C@@H]2CC[C@]2(C)[C@@H](O)CC[C@@H]12"
recorded_value = "29.6 µM"

[[record]]
compound = "COCCNc1ccc2c3c(cccc13)C(=O)N(CCN(C)C)C2=O"
recorded_value = "> 25 µM"


Request: GET /values?readout=TGI&system=SNB-75 CNS&item= CCC1CCN=C(NS(=O)(=O)c2cc(C)c(Cl)cc2S)N1 (stereo not drawn)
Result: > 100 µM

Request: Another compound to look at: Cc1ccc(-c2cc3c4c(nc5ccccc53)C(=O)c3cccnc3-c4n2)cc1
Result: > 53.6 µM

Request: Another compound to look at: COc1ccc(Cc2c(=O)[nH]nc3ccccc23)cc1
Result: > 100 µM

Request: Another compound to look at: Cn1nc(C(F)(F)F)cc1-c1c[nH]c(OCc2ccc(Cl)cc2)c(-c2ccc(Cl)c(C(F)(F)F)c2)c1=O
Result: 2.72 µM

====

The entries below are paired with their reported TGI.
- Test system: EKVX NSCLC
- ASSAY NOTES: NCI tumour cell line growth inhibition, 48 h

Would you please look over these solved cases?
[[record]]
molecule = "O=C1C=CC2(C=C1)CCNC1=C2C(=O)c2ccccc2C1=O"
system_tested = "EKVX NSCLC"
recorded_value = "> 100 µM"

[[record]]
molecule = "C[Si](C)(N[Si](C)(C)OCCc1ccccc1)OCCc1ccccc1"
system_tested = "EKVX NSCLC"
recorded_value = "> 100 µM"

[[record]]
molecule = "C[C@]12CC[C@@H]3c4cc(OC(F)F)c(OS(N)(=O)=O)cc4CC[C@H]3[C@@H]1CC[C@@H]2OS(N)(=O)=O"
system_tested = "EKVX NSCLC"
recorded_value = "22.5 µM"

[[record]]
molecule = "c1ccc(C(NC2=NCCO2)c2ccccc2)cc1"
system_tested = "EKVX NSCLC"
recorded_value = "> 10 µM"

[[record]]
molecule = "C/C(=N\\NC(=S)NCCCCNC(=S)N/N=C(\\C)c1ccccn1)c1ccccc1"
system_tested = "EKVX NSCLC"
recorded_value = "> 100 µM"

[[record]]
molecule = "CCCc1cc(=O)n2c(C(=O)Nc3cccc(C(=O)OCC)c3)c(C(=O)Nc3ccc(F)cc3)sc2n1"
system_tested = "EKVX NSCLC"
recorded_value = "> 140 µM"

[[record]]
molecule = "COc1cc2cc(C(=O)Nc3cc4n(n3)-c3ccccc3C4)[nH]c2c(OC)c1OC"
system_tested = "EKVX NSCLC"
recorded_value = "11.5 µM"

[[record]]
molecule = "COC(=O)c1ccccc1CC(Cc1ccc2c(c1)CCC2)C(=O)OC (configuration not stated)"
system_tested = "EKVX NSCLC"
recorded_value = "> 100 µM"

[[record]]
molecule = "CCCCNC(=O)C1C(=O)N(CCCC)C(=O)/C1=N\\N (configuration not stated)"
system_tested = "EKVX NSCLC"
recorded_value = "> 100 µM"

[[record]]
molecule = "N#Cc1ccc(N2CCOCC2)cc1"
system_tested = "EKVX NSCLC"
recorded_value = "> 100 µM"


Request: Entry under review: CCOC(=O)CCSc1nc2ccc(I)cc2c(=O)n1Cc1ccccc1 . Reported TGI?
Result: 82.4 µM

Request: Another molecule to look at: C=C(C)[C@@]1(O)CCCC[C@@H]1CC(Sc1ccccc1)Sc1ccccc1
Result: 28.7 µM

====

- System: CAKI-1 renal
- ASSAY NOTES: NCI tumour cell line growth inhibition, 48 h
MEASURED ATTRIBUTE: TGI

[[record]]
compound = "C[C@]12CC[C@@H]3c4cc(OC(F)F)c(OS(N)(=O)=O)cc4CC[C@H]3[C@@H]1CC[C@@H]2OS(N)(=O)=O"
measured_attribute = "TGI"
recorded_value = "19.8 µM"

[[record]]
compound = "CC(=NNC(=S)Nc1cccc(C)c1)c1cccc(C(C)=NNC(=S)Nc2cccc(C)c2)n1"
measured_attribute = "TGI"
recorded_value = "71.1 µM"

[[record]]
compound = "NC(N)=NC(N)=Nc1cnccn1"
measured_attribute = "TGI"
recorded_value = "> 100 µM"

[[record]]
compound = "OC[P+](CO)(CO)C12CC3CC(CC(C3)C1)C2"
measured_attribute = "TGI"
recorded_value = "> 100 µM"

[[record]]
compound = "COc1ccc2[nH]cc(C(=O)C(=O)NC34CC5CC(CC(C5)C3)C4)c2c1"
measured_attribute = "TGI"
recorded_value = "> 100 µM"

[[record]]
compound = "O=C(O)c1cc(=O)c2c(OCC(O)COc3cccc4oc(C(=O)O)cc(=O)c34)cccc2o1"
measured_attribute = "TGI"
recorded_value = "> 100 µM"

[[record]]
compound = "CCCCCCCCCCCC(=O)N1CCN(C(C)=O)CC1"
measured_attribute = "TGI"
recorded_value = "38.9 µM"

[[record]]
compound = "NC1CCCCC1N.O=[Se]([O-])[O-].[Pt+4] (stereo not given)"
measured_attribute = "TGI"
recorded_value = "45.3 µM"


Request: Entry under review: COc1ccc(Cc2c(=O)[nH]nc3ccccc23)cc1 . Reported TGI?
Result: > 100 µM

Request: Another compound to look at: C/C(=N\NC(=S)NCCCCNC(=S)N/N=C(\C)c1ccccn1)c1ccccc1
Result: > 100 µM

Request: Another compound to look at: Cn1nc(C(F)(F)F)cc1-c1c[nH]c(OCc2ccc(Cl)cc2)c(-c2ccc(Cl)c(C(F)(F)F)c2)c1=O
Result: 2.91 µM

====

- Tested on: K-562 leukemia
- ASSAY NOTES: NCI tumour cell line growth inhibition, 48 h
MEASURED ATTRIBUTE: TGI

Would you please look over these solved cases?
[[record]]
compound = "O=c1[nH]c(=O)c2cc3cc(C4CC(O)C(CO)O4)ccc3cc2[nH]1 (stereo not drawn)"
system_tested = "K-562 leukemia"
measured_attribute = "TGI"
recorded_value = "> 100 µM"

[[record]]
compound = "N#Cc1ccc(CSC2=C(c3ccc(Cl)cc3)S/C(=C3\\SC(SCc4ccc(C#N)cc4)=C(c4ccc(Cl)cc4)S3)S2)cc1"
system_tested = "K-562 leukemia"
measured_attribute = "TGI"
recorded_value = "> 100 µM"

[[record]]
compound = "Cc1nc(-c2nc(-c3ccc(OC(F)(F)F)cc3)no2)nn1Cc1cccc(N2CCC(S(C)(=O)=O)CC2)c1"
system_tested = "K-562 leukemia"
measured_attribute = "TGI"
recorded_value = "> 100 µM"

[[record]]
compound = "COC(=O)c1ccccc1N1C(=O)Cc2ccccc2C1=O"
system_tested = "K-562 leukemia"
measured_attribute = "TGI"
recorded_value = "> 100 µM"

[[record]]
compound = "O=[N+]([O-])c1ccc(Oc2c(Cl)cc(S(=O)(=O)/N=C(\\NO)Nc3ccc(Cl)cc3)cc2Cl)c(Cl)c1"
system_tested = "K-562 leukemia"
measured_attribute = "TGI"
recorded_value = "35 µM"


Request: Entry under review: Cc1ccc(-c2n[nH]c(=O)n2NC(=O)c2ccccc2C(=O)O)cc1 . Reported TGI?
Result: > 100 µM

Request: Another compound to look at: CC(=O)C1Cn2c(=O)c3cc4ccccc4cc3c(=O)n2C=C1C (stereo not drawn)
Result: > 100 µM

Request: Another compound to look at: COc1cc(/C(=C2/O[C@@H]([C@H]3COC(C)(C)O3)[C@H]3OC(C)(C)O[C@@H]23)c2ccc3ccccc3c2)cc(OC)c1OC
Result: > 100 µM

Request: Another compound to look at: Cc1cc(Nc2ncc3c(n2)N(C)C(=O)N(c2cc(NC(=O)c4cccc(C(F)(F)F)c4)ccc2C)C3)n(C)n1
Result: > 46.4 µM

Request: Another compound to look at: Cc1c2c(OCC(O)CN3CCN(c4ccccc4)CC3)nn(C)c(=O)c2c(C)n1-c1ccccc1 (stereo not drawn)
Result: 69.2 µM

Request: Another compound to look at: CCOC(=O)CCSc1nc2ccc(I)cc2c(=O)n1Cc1ccccc1
Result: > 100 µM

Request: Another compound to look at: O=C(O)c1cc(=O)c2c(OCC(O)COc3cccc4oc(C(=O)O)cc(=O)c34)cccc2o1
Result: > 100 µM

Request: Another compound to look at: CCOC(=O)c1cc2c3c(c(C(C)=O)c(O)c2[nH]1)N(C(C)=O)CC3
Result: > 100 µM

Request: Another compound to look at: COC(=O)C(C)(C)[C@@H]1OC(=O)N(S(=O)(=O)c2c(C)cc(C)cc2C)[C@H]1C(C)C
Result: > 100 µM

Request: Another compound to look at: N#Cc1c(N)n2c(nc1=Nc1ccc(Cl)cc1)sc1cc(Cl)ccc12
Result: > 100 µM

Request: Another compound to look at: COc1cc(C2c3cc4c(cc3[C@H](NS(C)(=O)=O)C3COC(=O)[C@H]23)OCO4)cc(OC)c1OC (stereo partly drawn)
Result: > 100 µM

Request: Another compound to look at: Cn1ccc(C(=O)NCCN(CCNC(=O)c2ccn(C)c(=O)c2O)CCNC(=O)c2ccn(C)c(=O)c2O)c(O)c1=O
Result: > 100 µM

Request: Another compound to look at: CNC(=O)NCCN1CC2CCC(CC2)C1
Result: > 10 µM

Taken from PubChem BioAssay (NCI).
